System: panel of hematologic and solid cancer lines
Experiment: 6-day in vitro growth/death assay
Assay type: cell-based, human
Conditions: Homo sapiens, NCI-H1650, NCI-H1650; read-out: gIC50
Description: To further develop these molecules and to guide clinical strategy, it was necessary to understand sensitivity in preclinical models by assessing the anti-tumour activity of the PRMT5 inhibitors in various cancers. Cell lines were obtained from ATCC or DSMZ and were grown in recommended medium, which was most frequently RPMI-1640 containing 10% FBS. Cell line proliferation assays, Western blotting, qRT-PCR, and cell cycle analyses were performed as described previously[27],[28]. […]
TEST READOUT: pIC50
Scale for pIC50: -log10 of concentration given in mol/L; no unit attached.

## Task Enter pIC50 (test system panel of hematologic and solid cancer lines) for `O=C(NC[C@H](O)CN1CCc2ccccc2C1)c1ccnc(NC2CCC2)c1`
## Result 5.06

###

system: panel of hematologic and solid cancer lines; assay: 6-day in vitro growth/death assay; format: cell-based, human; conditions: Homo sapiens, KMS-12-BM; read-out: gIC50
TEST READOUT: IC50
Please answer in the form of a number followed by its unit of measurement.

## Task Give reported IC50 value for O=C(NC[C@H](O)CN1CCc2ccccc2C1)c1ccnc(NC2CCC2)c1 [GSK3203591]
## Result 190 nM

###

system: panel of hematologic and solid cancer lines; assay: 6-day in vitro growth/death assay; type: cell-based, human; conditions: Homo sapiens, HCC1395, HCC1395; read-out: gIC50
TEST READOUT: pIC50
Scale for pIC50: -log10 of concentration given in mol/L; no unit attached.

## Task Give reported pIC50 value for `O=C(NC[C@H](O)CN1CCc2ccccc2C1)c1ccnc(NC2CCC2)c1`
## Result 4.83

###

Test system: panel of 240 cancer cell lines
Test: 10-day growth/death assay (Eurofins panel)
Type: cell-based
Details: Homo sapiens, MC-IXC; read-out: gIC50
From the text: To further develop these molecules and to guide clinical strategy, it was necessary to understand sensitivity in preclinical models by assessing the anti-tumour activity of the PRMT5 inhibitors in various cancers. […] Lymphoma, including MCL and diffuse large B-cell lymphoma (DLBCL), breast, and multiple myeloma cell lines were among the most sensitive tumour types and had gIC50 values in the low nM range (Fig. 1B). […]
TEST READOUT: pIC50
Scale for pIC50: -log10 of concentration given in mol/L; no unit attached.

## Task Give reported pIC50 value for `O=C(NC[C@H](O)CN1CCc2ccccc2C1)c1ccnc(NC2CCC2)c1`
## Result 6.21

###

test system: panel of 240 cancer cell lines; assay: 10-day growth/death assay (Eurofins panel); assay type: cell-based; settings: Homo sapiens, CAMA-1, CAMA-1; read-out: gIC50
TEST READOUT: pIC50
Scale for pIC50: -log10 of concentration given in mol/L; no unit attached.

## Task Give reported pIC50 value for `O=C(NC[C@H](O)CN1CCc2ccccc2C1)c1ccnc(NC2CCC2)c1`
## Result 7.10

###

system: panel of hematologic and solid cancer lines; assay: 6-day in vitro growth/death assay; type: cell-based, human; conditions: Homo sapiens, SU-DHL-2, SU-DHL-2; read-out: gIC50
Some molecules, each annotated with its measured IC50.
Please answer in the form of a number followed by its unit of measurement.

| SMILES ENTRY | VALUE OBSERVED |
| --- | --- |
| CC(=O)N1CCC(Nc2cc(C(=O)NC[C@H](O)CN3CCc4ccccc4C3)ncn2)CC1 | 34.1 nM |

Let us move to another entry and its IC50.
## Task Give reported IC50 value for `O=C(NC[C@H](O)CN1CCc2ccccc2C1)c1ccnc(NC2CCC2)c1`
## Result 86 nM

###

tested on: panel of hematologic and solid cancer lines; assay: 6-day in vitro growth/death assay; assay type: cell-based, human; settings: Homo sapiens, HCT-116, HCT-116; read-out: gIC50
TEST READOUT: IC50 (µM)
Please give a number only; it is taken to be in µM.

## Task Give reported IC50 value for O=C(NC[C@H](O)CN1CCc2ccccc2C1)c1ccnc(NC2CCC2)c1 [GSK3203591]
## Result 10

###

tested on: panel of 240 cancer cell lines; assay: 10-day growth/death assay (Eurofins panel); assay type: cell-based; conditions: Homo sapiens, HepG2, HepG2; read-out: gIC50
TEST READOUT: pIC50
Scale for pIC50: -log10 of concentration given in mol/L; no unit attached.

## Task Give reported pIC50 value for O=C(NC[C@H](O)CN1CCc2ccccc2C1)c1ccnc(NC2CCC2)c1 [GSK3203591]
## Result 6.67

###

tested on: panel of hematologic and solid cancer lines; assay: 6-day in vitro growth/death assay; assay type: cell-based, human; conditions: Homo sapiens, HT-29, HT-29; read-out: gIC50
TEST READOUT: IC50 (nM)
Please give a number only; it is taken to be in nM.

## Task Give reported IC50 value for `O=C(NC[C@H](O)CN1CCc2ccccc2C1)c1ccnc(NC2CCC2)c1`
## Result 1810

###

system: panel of hematologic and solid cancer lines; assay: 6-day in vitro growth/death assay; format: cell-based, human; conditions: Homo sapiens, RIVA; read-out: gIC50
TEST READOUT: IC50
Please answer in the form of a number followed by its unit of measurement.

## Task Give reported IC50 value for O=C(NC[C@H](O)CN1CCc2ccccc2C1)c1ccnc(NC2CCC2)c1 [GSK3203591]
## Result 68.4 nM

###

tested on: panel of hematologic and solid cancer lines; test: 6-day in vitro growth/death assay; assay type: cell-based, human; details: Homo sapiens, NCI-H1563, NCI-H1563; read-out: gIC50
pIC50: −log10 of the molar value.
TEST READOUT: pIC50

## Task Give reported pIC50 value for `O=C(NC[C@H](O)CN1CCc2ccccc2C1)c1ccnc(NC2CCC2)c1`
## Result < 4.53

###

System: panel of 240 cancer cell lines
Assay: 10-day growth/death assay (Eurofins panel)
Assay type: cell-based
Conditions: Homo sapiens, CAKI-2, Caki-2; read-out: gIC50
From the text: To further develop these molecules and to guide clinical strategy, it was necessary to understand sensitivity in preclinical models by assessing the anti-tumour activity of the PRMT5 inhibitors in various cancers. […] Lymphoma, including MCL and diffuse large B-cell lymphoma (DLBCL), breast, and multiple myeloma cell lines were among the most sensitive tumour types and had gIC50 values in the low nM range (Fig. 1B). […]
TEST READOUT: pIC50
Scale for pIC50: -log10 of concentration given in mol/L; no unit attached.

## Task Give reported pIC50 value for O=C(NC[C@H](O)CN1CCc2ccccc2C1)c1ccnc(NC2CCC2)c1 [GSK3203591]
## Result 6.94

###

tested on: panel of 240 cancer cell lines; assay: 10-day growth/death assay (Eurofins panel); assay type: cell-based; settings: Homo sapiens, CGTH-W-1, CGTH-W-1; read-out: gIC50
TEST READOUT: pIC50
Scale for pIC50: -log10 of concentration given in mol/L; no unit attached.

## Task Give reported pIC50 value for `O=C(NC[C@H](O)CN1CCc2ccccc2C1)c1ccnc(NC2CCC2)c1`
## Result 7.09

###

tested on: panel of 240 cancer cell lines; assay: 10-day growth/death assay (Eurofins panel); type: cell-based; conditions: Homo sapiens, MDA-MB-231, MDA MB 231; read-out: gIC50
TEST READOUT: IC50 (nM)
Please give a number only; it is taken to be in nM.

## Task Enter IC50 (test system panel of 240 cancer cell lines) for O=C(NC[C@H](O)CN1CCc2ccccc2C1)c1ccnc(NC2CCC2)c1 [GSK3203591]
## Result 56.7

###

tested on: panel of hematologic and solid cancer lines; experiment: 6-day in vitro growth/death assay; format: cell-based, human; conditions: REC-1; read-out: gIC50
TEST READOUT: pIC50
Scale for pIC50: -log10 of concentration given in mol/L; no unit attached.

## Task Give reported pIC50 value for `O=C(NC[C@H](O)CN1CCc2ccccc2C1)c1ccnc(NC2CCC2)c1`
## Result 5.70

###

system: panel of 240 cancer cell lines; assay: 10-day growth/death assay (Eurofins panel); type: cell-based; conditions: Homo sapiens, SW1088, SW1088; read-out: gIC50
TEST READOUT: pIC50
Scale for pIC50: -log10 of concentration given in mol/L; no unit attached.

## Task Give reported pIC50 value for `O=C(NC[C@H](O)CN1CCc2ccccc2C1)c1ccnc(NC2CCC2)c1`
## Result 7.39

###

target: panel containing 20 methyltransferases including PRMT9; assay: methyltransferase selectivity panel; conditions: other methyltransferases including PRMT9, substrates near KM^app
TEST READOUT: IC50

## Task Give reported IC50 value for CC(=O)N1CCC(Nc2cc(C(=O)NC[C@H](O)CN3CCc4ccccc4C3)ncn2)CC1 [GSK3326595]
## Result > 40 µM

###

test system: panel of hematologic and solid cancer lines; experiment: 6-day in vitro growth/death assay; type: cell-based, human; conditions: Homo sapiens, NCI-H1581, NCI-H1581; read-out: gIC50
TEST READOUT: pIC50
Scale for pIC50: -log10 of concentration given in mol/L; no unit attached.

## Task Give reported pIC50 value for O=C(NC[C@H](O)CN1CCc2ccccc2C1)c1ccnc(NC2CCC2)c1 [GSK3203591]
## Result 4.89

Just for reference, paper PMC6018746 is where these values come from.
